The reported measurements were obtained from patent US20170267766A1.

assayedTarget: monkey IGF-1R (on COS-7 cells) (African green monkey)
assayText: cell-based or functional assay
readoutKind: ΔMFI (MFI)
Express your answer in MFI, writing the number without its unit.

// worked examples, ΔMFI included
INSERT INTO assay_data (binder, recordedresult) VALUES
  ('c219D6 (antibody, human IgG1, kappa, V domains shown, group G2; also called chimeric 219D6) VH: QVQLQQSGPELVKPGDSVKMSCKASGYSFTSYFIHWVKQRPGQGLEWIGWIWPGDGSTKYNEKFKGKTTLTTDKSSSTAYMFLNSLTSEDSAVYFCASPMITPNYAMDYWGQGASVTVSS VL: DIQMTQTTSSLSASLGDRVTISCRASQDISKYLNWYQQQPDGTVKLLIYYTSRLHSGVPSRFSGRGSGTDYSLTISNLEQEDIATYFCQQGSTLPYTFGGGTKLEIKR', 102),
  ('m212A11 (antibody, V domains shown, murine mAb, hybridoma CNCM I-4773, group G2) VH: QVQLQQSGPELVKPGASVKMSCKASGYTFTSYYIHWVKQRPGQGLEWIGWIWPGDGSTKYNEKFKGKTTLTADKSSSTAYMFLSSLTSEDSAVYFCASPMITPNYAMDYWGQGASVTVSS VL: DIQMTQTTSSLSASLGDRVTISCRASQDINKYLNWYQQQPDGTVKLLIYYTSRLHSGVPSRFSGRGSGTDYSLTISNLEQEDIATYFCQQGSTLPYTFGGGTKLEIK', 83);

# ---- query binder ----
get_value(item= m208F2 (antibody, V domains shown, murine mAb, hybridoma CNCM I-4757, group G2; also called murine 208F2) VH: QVQLQQSGPELVKPGASVKMSCKASGYTFTSYYIYWVKQRPGQGLEWLGWIWPGDGSTKYNEKFKDKTTLTADKSSNTAYMFLSSLTSEDSAVYFCASPMITPNYAMDYWGQGASVTVSS VL: DIQMTQTTSSLSASLGDRVTISCRASQDISKYLNWYQQQPDGTIKLLIYYTSRLHSGVPSRFSGRGSGTDYSLTISNVEQEDIATYFCQQGSTLPYTFGGGTKLEIK , readout=ΔMFI) returns 53
